// provenance: the supplement of paper PMC10065799

System: c-Abl (mouse)
Experiment: phosphorylation enrichment, bacterial display (enrichment ratio); higher = better substrate or ligand; peptides without Tyr show the background;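 note: 11-residue human phosphosite peptides and single-mutation variants displayed on the E. coli surface, counted by deep sequencing, each peptide's frequency after selection divided by its frequency in the unselected input library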;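 note: frequency after pTyr selection over input frequency; kinase dosed for 20-30% of maximal phosphorylation in three min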
# phosphorylation enrichment listing for each entry below
Keep it simple and answer with nothing but the number.

Example results:
SVQIVYKPVDL [MAPT_Y627] :: 0.689
IGEGTYGVVFK [CDK2_Y15_YF] :: 0.631
RVQKRYIFDNV [RCN1_Y115] :: 0.252

What does the data say about its phosphorylation enrichment? Entry: RFVFFYSFLLK [PTEN_Y178_YF] 1.45

----------
Target: Fes (UniProt P07332)
Sequence (P07332 whole entry, looked up): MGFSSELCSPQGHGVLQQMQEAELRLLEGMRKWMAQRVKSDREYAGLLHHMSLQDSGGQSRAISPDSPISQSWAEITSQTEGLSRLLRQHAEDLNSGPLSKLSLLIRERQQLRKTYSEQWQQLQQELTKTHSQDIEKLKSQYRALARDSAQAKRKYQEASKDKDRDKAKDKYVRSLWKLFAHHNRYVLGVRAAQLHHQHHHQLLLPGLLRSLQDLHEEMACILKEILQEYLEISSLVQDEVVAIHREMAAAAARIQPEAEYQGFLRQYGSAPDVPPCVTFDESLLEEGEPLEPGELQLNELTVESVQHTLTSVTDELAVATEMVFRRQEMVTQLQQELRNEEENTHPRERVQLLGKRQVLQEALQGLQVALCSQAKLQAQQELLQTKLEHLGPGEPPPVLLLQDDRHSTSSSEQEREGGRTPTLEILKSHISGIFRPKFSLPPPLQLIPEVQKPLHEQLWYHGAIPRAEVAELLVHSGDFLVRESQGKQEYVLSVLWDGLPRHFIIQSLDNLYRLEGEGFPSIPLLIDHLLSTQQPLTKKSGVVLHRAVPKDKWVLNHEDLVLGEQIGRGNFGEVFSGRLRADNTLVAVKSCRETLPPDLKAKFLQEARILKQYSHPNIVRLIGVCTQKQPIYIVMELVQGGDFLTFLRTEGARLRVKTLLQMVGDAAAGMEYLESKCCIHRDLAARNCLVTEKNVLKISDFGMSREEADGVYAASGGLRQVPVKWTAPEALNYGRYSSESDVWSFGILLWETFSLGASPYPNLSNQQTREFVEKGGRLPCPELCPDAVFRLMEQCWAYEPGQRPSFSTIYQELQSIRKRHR
Experiment: phosphorylation enrichment, bacterial display (enrichment ratio); higher = better substrate or ligand; peptides without Tyr show the background
readoutLabel: phosphorylation enrichment
Keep it simple and answer with nothing but the number.

NTQRPHFKGGG [TYROBP_Y111_Y111H_YF] :: 0.735
YSSLGYPLPEG [ZSWIM4_Y87_P89L] :: 0.904
HELFVYKCDEN [DOCK3_Y548_YF] :: 2.21
AAFNRYDQERF [CDC73_Y293_YF] :: 0.856
CTLNVYRQLHN [LUZP1_Y1036_S1034N] :: 1.28
DFPGNYSGFDD [POLR1C_Y33_YF] :: 0.899
KYRREYILSLE [GPC3_Y299_W296R] :: 0.698
CTHDLYMIMRE [FGFR3_Y724] :: 1.46
KKCTRYIDCAL [ASPA_Y64_D68A] :: 0.755
VSSPKYGSNDE [TMCC2_Y473_D476N] :: 0.912

What does the data say about its phosphorylation enrichment? Entry: FEHVGYTTLNR [CHN1_Y148_YF] 0.805

What does the data say about its phosphorylation enrichment? Entry: AKNKDYMSIIR [GNE_Y197] 0.677

What does the data say about its phosphorylation enrichment? Entry: KMKGDYYCYLA [YWHAG_Y130_R132C] 1.24

What does the data say about its phosphorylation enrichment? Entry: QDLFLYQTHSE [PKHD1_Y255] 1.96

What does the data say about its phosphorylation enrichment? Entry: FSNVLYRPRGA [TMIGD2_Y197_YF] 0.845

What does the data say about its phosphorylation enrichment? Entry: YMRGMYFRMKD [PLA2G6_Y541] 0.947

What does the data say about its phosphorylation enrichment? Entry: ALAHKYLGGGG [HBB_Y146_H147L] 0.389

What does the data say about its phosphorylation enrichment? Entry: FHKALYTVRSF [PDE6C_Y266_YF] 0.942

What does the data say about its phosphorylation enrichment? Entry: GHPYAYDWISI [BEST1_Y227_L224P] 2.26

What does the data say about its phosphorylation enrichment? Entry: RDSQIYAVDYE [MRPS34_Y34_L33I] 1.56

What does the data say about its phosphorylation enrichment? Entry: LVSCTYQLARR [FGFR2_Y608_G613R] 1.33

What does the data say about its phosphorylation enrichment? Entry: TLNHQYDYTFH [CSNK1A1_Y292_D297H] 0.753

What does the data say about its phosphorylation enrichment? Entry: QRPGLYDRPGA [HNRNPH2_Y210_P209L] 0.943

What does the data say about its phosphorylation enrichment? Entry: SVTCTYSPALY [TP53_Y126_N131Y] 1.71

What does the data say about its phosphorylation enrichment? Entry: QLFGAYLRIHA [BSCL2_Y213_YF] 2.12
